System: SR
experimental.details: NCI tumour cell line growth inhibition, 48 h
The source made the active and inactive calls. No stated cut-off is given here; in the data, active = GI50 up to about 1.1 µM and inactive = higher.
Classes used: class 1 (active), class 0 (inactive)

| molecule | answer.label |
| --- | --- |
| CC1=CC(=O)c2c(C=O)c(O)c(O)c(C(C)C)c2C1=O | class 0 |
| CC(=O)NC1COC(COC(=O)CCCCCCCCCCNC(=O)c2ccc([N+](=O)[O-])c3c(=O)c4ccccc4[nH]c23)C(O)C1OC(C)C(=O)NC(C(=O)NC(CCC(N)=O)C(=O)OCc1ccccc1)C(C)C (stereo unspecified) | class 0 |
| O=C1C(Cl)=C(N2CCOCC2)C(=O)c2c(O)ccc(O)c21 | class 0 |
| COc1cc(Cn2c3c(c4cc(O)ccc42)C(=O)c2ccccc2C3=O)cc(OC)c1 | class 1 |
| Cc1ccc(S(=O)(=O)NC(=O)NS(=O)(=O)O)cc1 | class 1 |
| O=C(O)c1c2c(c(C(=O)O)c3ccccc13)-c1ccccc1-2 | class 0 |
| N#Cc1cc2c(cc1Cl)Sc1nnc(Nc3ccccc3)n1S2(=O)=O | class 1 |
| O=C1NC(N2CCOCC2)=N/C1=C\c1ccccc1 | class 0 |
| CCOC(=O)c1c(-c2ccc(O)c(OC)c2)c(C#N)c(=S)n(C2OC(CO)C(O)C(O)C2O)c1-c1ccccc1 (stereo unspecified) | class 0 |
| Cc1c(O)c(OC2OC(CO)C(O)C(O)C2O)cc2c1CC[C@@H]1C2(C)C(=O)C[C@]2(C)[C@@H]([C@@](C)(O)C3CCC(C)(C)O3)[C@H](O)C[C@@]12C (stereo partly specified) | class 0 |
| COc1nc2[nH]ccc2c(=O)n1C | class 0 |
